Examples of compounds with documented EC50 follow.
# System: RS4;11
# assayMethodText: sensitivity of leukemia/lymphoma cell line, 5 uM cut-off
# Format: cell-based
# testParameters: Homo sapiens, read-out: sensitivity class by EC50

CC1(C)CCC(c2ccc(Cl)cc2)=C(CN2CCN(c3ccc(C(=O)NS(=O)(=O)c4ccc(N[C@H](CCN5CCOCC5)CSc5ccccc5)c(S(=O)(=O)C(F)(F)F)c4)cc3)CC2)C1 = < 5 µM

Please examine the following record next.
Input: So what does the record say about EC50 for `CN(C)CC[C@H](CSc1ccccc1)Nc1ccc(S(=O)(=O)NC(=O)c2ccc(N3CCN(Cc4ccccc4-c4ccc(Cl)cc4)CC3)cc2)cc1[N+](=O)[O-]` ?
Output: < 5 µM

###

# Tested on: NCI-1417
# assayMethodText: cell cytotoxicity EC50, CellTiter Glo, SCLC cell line
# Assay type: cell-based, human
# testParameters: 10% human serum, 48 hours, read-out: EC50
measureName: pEC50
The meaning of pEC50 here: minus log10 of the concentration in molar units.

Input: So what does the record say about pEC50 for CC1(C)CCC(c2ccc(Cl)cc2)=C(CN2CCN(c3ccc(C(=O)NS(=O)(=O)c4ccc(N[C@H](CCN5CCOCC5)CSc5ccccc5)c(S(=O)(=O)C(F)(F)F)c4)cc3)CC2)C1 [ABT-263] ?
Output: 6.44

###

# Tested on: NCI-H196
# assayMethodText: sensitivity of SCLC cell line, procedure of Oltersdorf
# Type: cell-based
# testParameters: Homo sapiens, read-out: sensitivity class by EC50
measureName: EC50

Input: Record `CN(C)CC[C@H](CSc1ccccc1)Nc1ccc(S(=O)(=O)NC(=O)c2ccc(N3CCN(Cc4ccccc4-c4ccc(Cl)cc4)CC3)cc2)cc1[N+](=O)[O-]` : what is its EC50 with NCI-H196?
Output: > 5 µM

###

Examples of compounds with documented pEC50 follow.
# System: DOHH2
# assayMethodText: sensitivity of leukemia/lymphoma cell line, 5 uM cut-off
# Format: cell-based
# testParameters: Homo sapiens, DOHH-2, read-out: sensitivity class by EC50
pEC50: −log10 of the molar value.

CC1(C)CCC(c2ccc(Cl)cc2)=C(CN2CCN(c3ccc(C(=O)NS(=O)(=O)c4ccc(N[C@H](CCN5CCOCC5)CSc5ccccc5)c(S(=O)(=O)C(F)(F)F)c4)cc3)CC2)C1 = > 5.30

Please examine the following record next.
Input: So what does the record say about pEC50 for `CN(C)CC[C@H](CSc1ccccc1)Nc1ccc(S(=O)(=O)NC(=O)c2ccc(N3CCN(Cc4ccccc4-c4ccc(Cl)cc4)CC3)cc2)cc1[N+](=O)[O-]` ?
Output: > 5.30

###

# System: SHP-77
# assayMethodText: cell cytotoxicity EC50, CellTiter Glo, SCLC cell line
# Assay type: cell-based, human
# testParameters: SHP77, 10% human serum, 48 hours, read-out: EC50
measureName: pEC50
The meaning of pEC50 here: minus log10 of the concentration in molar units.

Input: So what does the record say about pEC50 for `CC1(C)CCC(c2ccc(Cl)cc2)=C(CN2CCN(c3ccc(C(=O)NS(=O)(=O)c4ccc(N[C@H](CCN5CCOCC5)CSc5ccccc5)c(S(=O)(=O)C(F)(F)F)c4)cc3)CC2)C1` ?
Output: 5.41

###

# Test system: Rec-1
# assayMethodText: cell cytotoxicity EC50, CellTiter Glo, Mantle Cell Lymphoma cell line, Rec-1 sub-clone batch listed first
# Assay type: cell-based, human
# testParameters: Homo sapiens, Rec1, read-out: Response Designation
measureName: EC50

Input: So what does the record say about EC50 for CC1(C)CCC(c2ccc(Cl)cc2)=C(CN2CCN(c3ccc(C(=O)NS(=O)(=O)c4ccc(N[C@H](CCN5CCOCC5)CSc5ccccc5)c(S(=O)(=O)C(F)(F)F)c4)cc3)CC2)C1 [ABT-263] ?
Output: ≤ 4.8 µM
